Tested on: OVCAR-5 ovarian
Test: NCI-60 one-dose screen, 48 h
Conditions: 10 µM unless noted
Procedure: Growth inhibition of the OVCAR-5 human tumor cell line is measured as a screen for anti-cancer activity. Cells are grown in 96 well plates and exposed to the test compound for 48 hours. Compounds are tested at a single concentration, which is 10^-5 M for most compounds. The reported endpoint is percent growth (GI% or GIPRCNT), where numbers from 0 - 100% represent growth inhibition, and numbers from -100% - 0 represent cell death. For example, a value of 40 represents 60% growth inhibition. […]
The panel holds about 83,000 compounds, 20% with a hit somewhere; the sample as a whole holds those more often. The source made the active and inactive calls. The calls were made as follows: active = growth percent below 10; inactive = the rest.
Respond only with the outcome that fits, drawn from active, inactive

Use these answered entries as a reference point.
CCn1c2c(c3ccccc31)SC1c3cccn3CCN1C2=S (configuration not stated)    inactive
CCOC(=O)C1=NN(c2ccc(Cl)cc2)C2C3N(c4ccc(Cl)cc4)N=C(C(=O)OCC)N3c3ccccc3N12 (configuration not stated)    inactive
C[C@]12CC[C@@H]3c4ccc(O)c([N+](=O)[O-])c4CC[C@H]3[C@@H]1CC[C@@H]2NS(=O)(=O)c1cccc(Br)c1    inactive
Cc1c(C(N)=O)sc2c1c(=O)n(Cc1ccccc1)c1nnc(SCC(=O)Nc3ccc(Cl)cc3)n21    inactive
Cc1nn(-c2ccccc2)c2c1oc(=O)c1cc(Cl)ccc12    inactive

I would be grateful if you could indicate the recorded call for COc1ccc2c(c1)/C(=C\c1c[nH]c3ccc(F)cc13)C(=O)N2 . inactive

I would be grateful if you could indicate the recorded call for CCCCSc1cc(C)nc(N)n1 . inactive

I would be grateful if you could indicate the recorded call for Cc1ccc([N+](=O)[O-])cc1NC(=O)Nc1cccc(F)c1 . inactive

I would be grateful if you could indicate the recorded call for CCCc1nn(C)c2c(=O)[nH]c(-c3cc(S(=O)(=O)N4CCN(C)CC4)ccc3OCC)nc12 . inactive

I would be grateful if you could indicate the recorded call for C=C(C[C@@](O)(C(=O)Oc1ccccc1)C(=O)C1CCCCC1)c1ccccc1 . inactive
